Measured GI50 by item
tested on: ACHN; assay: NCI tumour cell line growth inhibition, 48 h
The source made the active and inactive calls. Cut-off read from the data, not from the text of the source: active = GI50 up to about 1.1 µM and inactive = higher.

Some molecules with known GI50 results, for comparison:
INSERT INTO assay_data (molecule, measurementtarget, observedresult) VALUES
  ('CC(=O)O[C@H]1CC[C@]2(C=O)[C@H]3CC[C@]4(C)[C@@H](C5=CC(=O)OC5)CC[C@]4(O)[C@@H]3CC[C@]2(O)C1 [STROPHANTHIDIN ACETATE]', 'ACHN', '0.047 µM (active)'),
  ('C=CC(C)(C)[C@@]12CC3C(=O)N[C@@H](Cc4ccccc4)C(=O)N3[C@@H]1N(C(C)=O)c1ccccc12 (stereo partly drawn)', 'ACHN', '63.5 µM (inactive)'),
  ('COc1cc(S(=O)(=O)Nc2ccc(-c3csc(N4C(=O)CSC4c4ccccc4O)n3)cc2)ccc1Cl (stereo not drawn)', 'ACHN', '32.4 µM (inactive)');

Query :: Return GI50 for the following molecule: `O=c1cc(-c2ccccc2)[nH]c2ccc(N3CCCCC3)cc12`
Result :: 0.048 µM (active)

Query :: Return GI50 for the following molecule: CCOP(=O)(CCC(O)CNc1nc(N)nc(Cl)c1/N=N/c1ccc(Cl)cc1)OCC (stereo not drawn)
Result :: 7 µM (inactive)
